Target: DNA dC->dU-editing enzyme APOBEC-3F (Homo sapiens)
Experiment: qHTS for inhibitors of Vif-A3F interactions: Cherry picks counterscreen; also: nearly all actives have a fitted effect of over 65% in size; also: potency is read from the fitted curve at half-maximal effect
Settings: HeLa A3F-eYFP/Vif cells, eYFP fluorescence, 24 h; series mostly up to 46.1 µM
From the text: The recent discovery and characterization of host restriction factors, which provide a potent defense to invading retroviruses, has provided new targets for antiviral drug development. […] In the presence of an inhibitor, it is expected that Vif will be unable to degrade A3G-eYFP and/or A3F-eYFP, resulting in an increase in yellow fluorescence. […]
Screen size: about 2,100 compounds; about 1,100 (52%) were called active. Not shown: some 29% with an inconclusive outcome. So high a share suggests a set chosen from earlier hits. The list shows a part of the results.
reported property: Potency

                                   compound       measurement
0  CC(=O)c1cccc(NC(=O)C2CCCN(S(=O)(=O)c3cccc4nonc34)C2)c1 (stereo not drawn)          inactive
1  CC(=O)Nc1sc2c(c1-c1nc3ccccc3s1)CCN(C(C)C)C2  3260 nM (active)
2  O=C(CN1c2cccc3cccc(c23)S1(=O)=O)Nc1ccc(S(=O)(=O)N2CCOCC2)cc1          inactive
3  COc1cccc(/C=N/NC(=O)c2[nH]nc3c2CCc2ccccc2-3)c1  2500 nM (active)
4  COc1ccc2c(c1)/C(=C/c1cc(OC)c(OC)c(OC)c1)C(=O)N2  2230 nM (active)
5  CC(=O)Nc1ccc(Nc2c3c4c(cccc4n(C)c2=O)C(=O)c2ccccc2-3)cc1          inactive
6  O=C(COc1ccc(C(=O)c2ccccc2)cc1)NCc1ccc(F)cc1  1980 nM (active)
7  CC(=O)Nc1ccc(S(=O)(=O)N2c3ccccc3C(C)=CC2(C)C)cc1  2230 nM (active)
